Assay: ATG_XTT_Cytotoxicity: Cytotoxicity Assessment in the Attagene TRANS-FACTORIAL HepG2 Assay (AID 2283584)
Method: ATG_XTT_Cytotoxicity is a cell-based, single-readout assay that uses HepG2, a human liver cell line, with measurements taken at 24 hours after chemical dosing in a 24-well plate.ATG_XTT_Cytotoxicity is one of one assay component(s) measured or calculated from the ATG_XTT_Cytotoxicity assay. […] This assay endpoint, ATG_XTT_Cytotoxicity, was analyzed in the positive analysis fitting direction relative to DMSO as the negative control and baseline of activity. […]
Results filed as inconclusive are left out. Activity calls are given as the source filed them. The calls were made as follows: active = hit-call score of the fitted dose curve at least 0.9, where 1 is the maximum; inconclusive = response in the unintended direction; inactive = score below 0.9.
Possible outcomes: active, inactive

O=C1c2c(O)cccc2Cc2cccc(O)c21 = inactive
COC(=O)[C@H]1[C@H]2C[C@@H]3c4[nH]c5cc(OC)ccc5c4CCN3C[C@H]2C[C@@H](OC(=O)c2cc(OC)c(OC)c(OC)c2)[C@@H]1OC = inactive
CS(=O)(=O)c1ccc([C@@H](C[C@H]2CCC(=O)C2)C(=O)Nc2cnccn2)cc1Cl = inactive
CCCCC(CC)COC(=O)CCCCCCCC(=O)OCC(CC)CCCC (configuration not stated) = inactive
O=[Si]=O = inactive
O=C1NC(=O)C(c2ccccc2)(c2ccccc2)N1 = inactive
Cc1ccc(-c2cc(C(F)(F)F)nn2-c2ccc(S(N)(=O)=O)cc2)cc1 = active
CCCCCCCCCCCCCCOS(=O)(=O)O = inactive
O=C1O[C@H]([C@H](O)CO)C(O)=C1O = inactive
O=C(O)CN(CC(=O)O)CC(=O)O = inactive
CN(C)CCCN1c2ccccc2Sc2ccc(Cl)cc21 = active
NC1CCCCC1 = inactive
